# assay-system: T1, CYLD CAP-Gly3 domain, GST-tagged, Q9NQC7
# T1 chain: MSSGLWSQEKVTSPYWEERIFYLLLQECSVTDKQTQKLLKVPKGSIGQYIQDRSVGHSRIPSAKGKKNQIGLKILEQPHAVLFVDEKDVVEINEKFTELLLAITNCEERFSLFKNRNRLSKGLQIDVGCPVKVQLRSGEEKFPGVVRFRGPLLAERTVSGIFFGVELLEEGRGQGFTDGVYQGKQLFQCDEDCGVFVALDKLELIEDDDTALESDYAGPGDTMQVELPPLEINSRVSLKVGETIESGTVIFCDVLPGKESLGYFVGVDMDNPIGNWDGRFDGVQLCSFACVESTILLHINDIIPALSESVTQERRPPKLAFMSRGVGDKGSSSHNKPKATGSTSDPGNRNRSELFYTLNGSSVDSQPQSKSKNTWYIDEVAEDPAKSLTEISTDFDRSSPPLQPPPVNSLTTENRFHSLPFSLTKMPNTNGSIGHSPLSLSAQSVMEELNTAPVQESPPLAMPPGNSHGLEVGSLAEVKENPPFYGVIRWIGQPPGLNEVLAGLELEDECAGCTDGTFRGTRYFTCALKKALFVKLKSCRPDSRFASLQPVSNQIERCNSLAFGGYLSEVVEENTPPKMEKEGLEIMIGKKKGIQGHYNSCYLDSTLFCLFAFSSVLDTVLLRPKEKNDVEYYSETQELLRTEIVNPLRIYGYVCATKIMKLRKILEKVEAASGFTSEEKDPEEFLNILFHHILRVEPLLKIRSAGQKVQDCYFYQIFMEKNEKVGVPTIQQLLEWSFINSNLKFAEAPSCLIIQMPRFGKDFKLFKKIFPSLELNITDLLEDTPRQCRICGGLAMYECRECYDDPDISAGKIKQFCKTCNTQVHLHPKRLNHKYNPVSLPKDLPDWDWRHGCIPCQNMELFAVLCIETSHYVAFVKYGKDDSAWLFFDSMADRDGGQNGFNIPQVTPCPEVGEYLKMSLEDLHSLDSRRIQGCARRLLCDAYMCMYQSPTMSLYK
# experimental-protocol: peptide SPOT array alanine scanning
# details: chain shown with the change;; parent: est. 0; read off a plot
property-measured: other: signal change (%)

Known results for binders:
# binder, observed-value
measured = [
    ("GGVFKDEIYIPLAEED [HECTD4_(3003-3018) peptide, Q9Y4D8 Q3015A]", -15),
    ("GGVFKDAIYIPLQEED [HECTD4_(3003-3018) peptide, Q9Y4D8 E3009A]", -95),
    ("GGVFKDEIYAPLQEED [HECTD4_(3003-3018) peptide, Q9Y4D8 I3012A]", -90),
    ("GGVFKDEIYIPLQEEA [HECTD4_(3003-3018) peptide, Q9Y4D8 D3018A]", 35),
    ("GGVFKDEIYIPLQEAD [HECTD4_(3003-3018) peptide, Q9Y4D8 E3017A]", 55),
    ("GGVFKDEIYIPAQEED [HECTD4_(3003-3018) peptide, Q9Y4D8 L3014A]", 50),
]

1 = AGVFKDEIYIPLQEED [HECTD4_(3003-3018) peptide, Q9Y4D8 G3003A]
2 = GGVFKAEIYIPLQEED [HECTD4_(3003-3018) peptide, Q9Y4D8 D3008A]
Select one. Lower other: signal change (%): 1 or 2 Please indicate the selected item by its label.
2
